TEST_METHOD_NOTES: yeast display, Sf9 membrane polyspecificity reagent, FACS + sequencing; frameworks hold sequencing errors
QUANTITY_MEASURED: polyreactivity (PSR sort gate)

// solved cases for polyreactivity (PSR sort gate) follow
QVQIVESGGGLVQAGGSLRLSCAASGRTYYYAMGWYRQAPGKERELVAAITESGDNTYYADSVKGRFTISRDNAKNTVYLQMNSLKPEDTAVYYCAVDYPSPSYYYEYYYWGQGTQVTVSS | high polyreactivity
QVQIVESGGGLVQAGGSLRISCAASGFTFYPYTMGWYRQAPGKEREFVAAISWNCGSTYYADSVKGRFTISCDNAKNTVYLQMNSLKPEDSAVYYCAKRSYRSSARELDYWGQGTQVTVSS | low polyreactivity
QVQLEESGVGLVQAGGSLRLSCPASGRIIYRNAIVWYSQAPGKERELVAAITGSGGITYYADSVKGRFTISRDNAKNTVYLLMNSLKPEVTAVYYCAARAKFLSVPTYDNWGQGTQVTVSS | high polyreactivity
QVQLVESGGGLVQAGGSLRLSCAASGRIFRVYAMGWYRQAPGKERELVAAINRSGGTTYYADSVKGRFTISRDNAKHTVYLQMNSLKPEDTAVYYCNAPVRRDVAYGYWGQGTQVTVSS | high polyreactivity

Please report the recorded polyreactivity (PSR sort gate) for `QVQLVESGGGLVQAGGSLRLRCAASGGTFYPYALGWYRQAPGKESELVAAISTSGGITYYADSVKARFTISRDNAKNTVYLQMNSLKPEDTAVYYCAAPVAYRGSRNFIYRYNYWGQGTQVTVSS` . high polyreactivity

Repeat for the following sequence: `QVHLVESGGGLVQAGGSLRLSCAASGFIFDYYAMGWYRQAPGKERELVAAITGSGGGTYYADSVKGRFTISRDNAKNTVYLQMNSLKPEDSAVYYCNAYVPYPYSSEVQDYDYWGQCTQVTVSS` high polyreactivity

Repeat for the following sequence: `QVQLVESGGGLVQAGGSLRLSCAASGRIFRRNAMGWYRPAPGKERELVAGITWSGGTTYYADSVKGRFTISRDNAKNTVYLQMNSLKPEDTAVYYCNAGRSKWLSRYDYWGQGTQVTVSS` high polyreactivity

Repeat for the following sequence: `QVQLVESGGGLVQAGGSLRLSCAASGHTFRKYAMGWYRQAPGKERELVASITWSDGITYYADSVKGRFTISRDNAKNTVYLQMNSLKPEDTAVYYCATDLVQSEYDYWGQGTQVTVSS` low polyreactivity

----------
TEST_METHOD_NOTES: yeast display, Sf9 membrane polyspecificity reagent, FACS + sequencing; frameworks hold sequencing errors
QUANTITY_MEASURED: polyreactivity (PSR sort gate)

// solved cases for polyreactivity (PSR sort gate) follow
QVQLVESGGGLVQAGGSLRLSCAASGSIIRVNTMGWYRQAPGKERELVAGITSRGGSTYYADSVKGRFTISRDNAKNTVYLQMISLKPEDTAFYYCANRAYGTALYRGYGNWGQGTQVTVSS | low polyreactivity
QVHLVESGGGLVQAGGSLRLSSAASGRIFSFNAMGWYREAPGKERELVAAISWSNGSTFYADSVKGRFTISRDNAKNTVYLQMNSLKPEETAVYYCATGFPHPKRNVNRRNYWGQGTQVTVSS | high polyreactivity
QVQLVESGGGLVQAGGSLRLSCAASGRIFRLYAMGWYRQAPGKERELVAAISKSGGSTYYADSVKGRFTFSRDNAKNTVYLQMNSLKPEDTAVYYCAADYRTHGGYEGTFDYWGQGTQVTVSS | low polyreactivity
QVQLVESGGGLVQAGGSLRLSCAASGRIFDGYAMGWYRQAPGKERELVAAISSRGGRTYYADSVKGRFTISRDNAKNTVYLQMNSLKPEDTAVYYCAGDDPYGEGDYWGQGTQVTVSS | low polyreactivity

Please examine the following record next.
Please report the recorded polyreactivity (PSR sort gate) for `QVQLVESGGGLVQAGGSLRLSCAASGLTFTYNAMGWYRQAPGKERELVAAISKRGGSTYYADSVKGRFTISRDNAKNTVYLQMNSLKPEDTAVYYCNARTTTRSYPAFDYWGQGTQVTVSS` . high polyreactivity

----------
TEST_METHOD_NOTES: yeast display, Sf9 membrane polyspecificity reagent, FACS + sequencing; frameworks hold sequencing errors
QUANTITY_MEASURED: polyreactivity (PSR sort gate)

// solved cases for polyreactivity (PSR sort gate) follow
QVQLVESGGGLVQAGGSLRLSCAASGYTFYSYALGWYRQAPGKERELVAAITSGGRTNYADSVKGRFTISRDNAKNTVYLQMNSLKPEDTAVYYCAAYVFRAYGRYYYWGQGTQVTVSS | high polyreactivity
QDQLVESGGGLVQAGGSLRLSCAASGRISTYTMGWYRQAPGKERELVATISTDASTNYADSVKGRFTISRDNAKNTVYLQMNSLRPEDTAVYYCAAVIVNQDYDYWGQGTQVTVSS | low polyreactivity
QVQLVESGGGLVHAGGSLRLSCAASGSIFEFYAMGWYRQAPGKERELVAAITWDDGSTYYADSVKGRFTISRDNAKNTVYLQMNSLKPEDTAVYYCAASASVRGGGADQYVIAFDYWGQGTQVTVSS | low polyreactivity
QVQLVESGGGLVQAGGSLRLSCAASGFTFYQYAMGWYRQAPGKEREFVAAISSSGSSTYYADSVKGRFTISRDNAKNTVYLQMNSLKPEDTEVYYCNAYFRNWRYSPGGYWGQGTQVTVSS | high polyreactivity
QVQLVESGGGLVQAGGSLRLSCAASGRTFSGNTMGWYRQAPGKERELVAAITGRGGSTYYADSVKGRFTISRDNANNTVYLQMNSLKPEDTAVYYCAALRYTFAGRFDYWGQGTQVTVSS | high polyreactivity

Please report the recorded polyreactivity (PSR sort gate) for `QVQLVESGGGLVQAGGSLRLSSAASGRIFAVNAMGRYRQAPGKERELVASIRWSGGSTNYADSVKGRFTISRDNAKNTVYLQMNSLKPEDTAVYFCAAVIYLWGQGTQVTVSS` . high polyreactivity

----------
TEST_METHOD_NOTES: yeast display, Sf9 membrane polyspecificity reagent, FACS + sequencing; frameworks hold sequencing errors
QUANTITY_MEASURED: polyreactivity (PSR sort gate)

QLQLVETGGGLVQAGGSLRLSCAASGSIIAKNAKGWYSQAPGTDRELVAAISKSGGITYYADSVKGRFSISRDNAKNTVYLQINSLKPEDTAVYYCNALSAGYIGVASRYYYWGQGTQVTVSS | high polyreactivity
QVQLVESGGGLVQAGGSLRLSCAASGSIFTRYVQGWYRQAPGNDRELVAAISGRGSSTYYADSVKGRFTISRDNAKNTVYLQMNSLKPEDTAVYYCAAEIVVFYSEGQRNTFYYWGQGTQVTVSS | high polyreactivity
QVQLQESVGGLVQAGGSLRLSCAASGNIFPTDRMGWYRQAPGKELEFVATNSHGGSTNYADSVKGRFTISRDNAKNTVYLQMNSLKPEDTAVYYCAVWSLGRWRHYYWGQGTQVTVSS | low polyreactivity
QVQLVESGGGLVQAGGSLRLSCAASGSTFGNNAMGWYRQAPGKERELVASISWSSGRTYYADSVKGRFTISRDNAKNTVYLQMNSLKREDTAVYYCAAPLPVDVVWDRSAEVRYDYWGQGTQVTVSS | low polyreactivity

Please report the recorded polyreactivity (PSR sort gate) for `QVQLVESGGGLVQAGGSRSLSCAASGRIFTVYAMGWYRQAPGKERELVAAISGRGGRTTYADSVKGRFTISRDNAKNTVFLQMNSLKPEDTAVYYCAAAYLRYVSTQYHYDYWGEGTQVTVSS` . low polyreactivity

----------
TEST_METHOD_NOTES: yeast display, Sf9 membrane polyspecificity reagent, FACS + sequencing; frameworks hold sequencing errors
QUANTITY_MEASURED: polyreactivity (PSR sort gate)

// solved cases for polyreactivity (PSR sort gate) follow
QVQLVESGGGLVQAGGSLRLSCAASGRIYLNAMGWYRQAPGKERELVAAISSRGASTYYADSVKGRFTISRDNAKNTVYLQMKSLKPEDTAVFYCAARLRNIYYFRMGYWGQGTQVTVSS | high polyreactivity
QVQLVESGGGLVQAGGSLRLSCAASGFTFYIYAMGWYRQAPGKERELVAAISSGGGRTYYADSVKGRFTISRDNAKNTVYLQMNSLKPEDTAVYYCAARGRAFSYNNYGSDYWGQGTQVTVSS | high polyreactivity
QVQLVESGGGLVQAGGSLRLSCAASGRTFGINAMGWYRQAPGKERELVARIRKTVGSTYYADSVKGRFTISRDNAKNTVYLQMNSLKPEDTAVYYCAADLRYGYLYPYDSWGQGTQVTVSS | high polyreactivity
QVQLVESGGGLVQAGGSLRLSCAASGSIFSIYAMGWSRQAPGTERELVATITRNSGRTYYADSVKGRFTISRDNAKNTVYLQMNSLKPEDTAVYYCAASVKIISYLVHSEFLGGELDYWGQGTQVTVSS | low polyreactivity
QVQLVESGGGLVQAGGSLRLSCAPSGITFTHYVMGWYRQAAGKERELVAAITSGGRTNYADSVKGRFTISRDNAKNTVYLQMNSLIPEDTAVYYCNAVKRVGDYWGRSFDYDYWGQGTKVTVSS | high polyreactivity
QVQLQESGGGLVQAGGSLRLSCAASDYIFPYKPKGWYRQAPGKEREFVATIATGGSTNYADSVKGRFTISRDNAKNTVYLQMNSLKPEDTAVYYCAVYGGPAGYLTYRGQGTQVTVSS | high polyreactivity

Please report the recorded polyreactivity (PSR sort gate) for `QVHLVESGGGLVQAGGSLRLSCAASGSIFYYNAMGWYRQAPGKERELVAAITSGDSTNYADSVKGRFTISRDNAKNTVYLQMNSLKPEDTAVYYCNTDGLVRNGPFYSWGQGTQVTVSS` . low polyreactivity

Repeat for the following sequence: `QVQLVESGGGLVQAGGSLRLSCAASGNIFKVYVMGWYRQAPGKERELVAAISGSGGSTYYADSVKGRFTISRDNAKNTVYLQMNSLKPEDTAVYYCNKVFKVTAARSFGYWGQGTQVTVSS` low polyreactivity

Repeat for the following sequence: `QVQLVESGGGLVQAGGSLRLSCAASGFTFHWYAMGWYRQAPGKERELVAAISWSGGSTYYADSVKGRFTISRDNAKNTVYLQMNSLKPEYTAVYYCNAGVYWPGEFDYWGQGTQVTVSS` high polyreactivity

Repeat for the following sequence: `QVQLVESGGGLVQAGGSLRLSCAASGFNYYTMGWYRQAPGKERELVAAINYSGGRTYYADSVKGRFTISRDNAKNTVYLQMNSLKPEDTAVYYCNTARSPYDHRPERSYDYWGLGTQVTVSS` high polyreactivity
